- testName: Ratio of log of drug level in brain to blood in Sprague-Dawley rat
- Format: ADME, tissue-based
- condition: read-out: logBB (converted)
One threshold, 0.2, splits the recorded Kp values: lower ones are Y, equal or higher ones are N.

[
  {
    "itemSmiles": "CN(C)S(=O)(=O)c1ccc(-c2ccc3cc(O)ccc3c2Oc2ccc(OCCN3CCCCC3)cc2)cc1",
    "group": "N"
  },
  {
    "itemSmiles": "Oc1ccc2c(Oc3ccc(OCCN4CCCCC4)cc3)c(-c3ccc(F)cc3)ccc2c1",
    "group": "N"
  },
  {
    "itemSmiles": "Oc1cccc(-c2ccc3cc(O)ccc3c2Oc2ccc(OCCN3CCCCC3)cc2)c1",
    "group": "N"
  },
  {
    "itemSmiles": "Oc1ccc2c(Oc3ccc(OCCN4CCCCC4)cc3)c(-c3ccc(F)c(F)c3)ccc2c1",
    "group": "N"
  },
  {
    "itemSmiles": "CS(=O)(=O)c1ccc(-c2ccc3cc(O)ccc3c2Oc2ccc(OCCN3CCCCC3)cc2)cc1",
    "group": "Y"
  },
  {
    "itemSmiles": "Oc1ccc2c(Oc3ccc(OCCN4CCCCC4)cc3)c(-c3cccc(F)c3)ccc2c1",
    "group": "N"
  }
]

Strictly below 0.2 in Kp? `Oc1ccc(-c2ccc3cc(O)ccc3c2Oc2ccc(OCCN3CCCCC3)cc2)cc1`
Y

Dear reviewer, please state whether `CCS(=O)(=O)c1ccc(-c2ccc3cc(O)ccc3c2Oc2ccc(OCCN3CCCCC3)cc2)cc1` has Kp strictly beneath 0.2.
Y

====

Listed here are compounds together with their documented log10 ED50.
- System: Rattus norvegicus
- testName: Inhibition of estradiol-induced increase in uterine wet weight in orally dosed Sprague-Dawley rat after 3 days
- Assay type: functional
- condition: po, 72 h
A value of 2 here means ED50 of 100 in mg/kg, since values are log10.

[
  {
    "compound": "CN(C)S(=O)(=O)c1ccc(-c2ccc3cc(O)ccc3c2Oc2ccc(OCCN3CCCCC3)cc2)cc1",
    "measuredProperty": "log10 ED50",
    "experimentalResult": -0.36
  },
  {
    "compound": "CCS(=O)(=O)c1ccc(-c2ccc3cc(O)ccc3c2Oc2ccc(OCCN3CCCCC3)cc2)cc1",
    "measuredProperty": "log10 ED50",
    "experimentalResult": -0.85
  }
]

log10 ED50 lookup needed for `CS(=O)(=O)c1ccc(-c2sc3cc(O)ccc3c2Oc2ccc(OCCN3CCCCC3)cc2)cc1` , thanks.
-0.21

So what does the record say about log10 ED50 for `O=S1(=O)CCC(c2ccc3cc(O)ccc3c2Oc2ccc(OCCN3CCCCC3)cc2)CC1` ?
-0.47

// returns reported log10 ED50 for input `N#Cc1cccc(-c2ccc3cc(O)ccc3c2Oc2ccc(OCCN3CCCCC3)cc2)c1`
-0.43

Please look up its log10 ED50: `Oc1ccc2c(Oc3ccc(OCCN4CCCCC4)cc3)c(-c3ccc(F)cc3)ccc2c1`
-1.82

Value lookup for log10 ED50; key = `Oc1ccc2c(Oc3ccc(OCCN4CCCCC4)cc3)c(-c3cccc(F)c3)ccc2c1`
-0.64

I would be grateful if you could share the reported log10 ED50 for CS(=O)(=O)C1CC=C(c2ccc3cc(O)ccc3c2Oc2ccc(OCCN3CCCCC3)cc2)CC1 (centres undefined) .
-0.59

Any idea what its log10 ED50 is? The compound is `Oc1cccc(-c2ccc3cc(O)ccc3c2Oc2ccc(OCCN3CCCCC3)cc2)c1`
-0.89

====

- testName: Drug level in Sprague-Dawley rat plasma at 10 mg/kg, po after 6 hrs
- Type: ADME, organism-based
- Design: dose 10 mg/kg, route oral
- condition: read-out: Drug uptake
Assign a class from recorded concentration at 6 h; defined classes: Low (below 200 ng/mL), Mid (200 ng/mL to below 400 ng/mL), High (400 ng/mL or more)

Known results for compounds:
[
  {
    "itemSmiles": "CCS(=O)(=O)c1ccc(-c2ccc3cc(O)ccc3c2Oc2ccc(OCCN3CCCCC3)cc2)cc1",
    "group": "Mid"
  },
  {
    "itemSmiles": "CN(C)S(=O)(=O)c1ccc(-c2ccc3cc(O)ccc3c2Oc2ccc(OCCN3CCCCC3)cc2)cc1",
    "group": "Low"
  },
  {
    "itemSmiles": "N#Cc1cccc(-c2ccc3cc(O)ccc3c2Oc2ccc(OCCN3CCCCC3)cc2)c1",
    "group": "Mid"
  },
  {
    "itemSmiles": "Oc1ccc2c(Oc3ccc(OCCN4CCCCC4)cc3)c(-c3cccc(F)c3)ccc2c1",
    "group": "Low"
  },
  {
    "itemSmiles": "Oc1ccc(-c2ccc3cc(O)ccc3c2Oc2ccc(OCCN3CCCCC3)cc2)cc1",
    "group": "Mid"
  },
  {
    "itemSmiles": "Oc1cccc(-c2ccc3cc(O)ccc3c2Oc2ccc(OCCN3CCCCC3)cc2)c1",
    "group": "Mid"
  },
  {
    "itemSmiles": "Oc1ccc2c(Oc3ccc(OCCN4CCCCC4)cc3)c(-c3ccc(F)c(F)c3)ccc2c1",
    "group": "High"
  },
  {
    "itemSmiles": "Oc1ccc2c(Oc3ccc(OCCN4CCCCC4)cc3)c(-c3ccc(F)cc3)ccc2c1",
    "group": "Low"
  }
]

Now let's try a different one.
Pick a category. Item: `CS(=O)(=O)c1ccc(-c2ccc3cc(O)ccc3c2Oc2ccc(OCCN3CCCCC3)cc2)cc1`
High

====

Here the recorded ED50 is given for each entry.
- System: Rattus norvegicus
- testName: Inhibition of estradiol-induced increase in uterine wet weight in orally dosed Sprague-Dawley rat after 3 days
- Type: functional
- condition: po, 72 h
The reply must contain the numeric value and, after it, the unit.

Below, 4 molecules whose answers are already recorded.
[
  {
    "itemSmiles": "CC(C)c1ccc(-c2sc3cc(O)ccc3c2Oc2ccc(OCCN3CCCCC3)cc2)cc1",
    "ED50": "0.16 mg/kg"
  },
  {
    "itemSmiles": "O=S1(=O)CC=C(c2ccc3cc(O)ccc3c2Oc2ccc(OCCN3CCCCC3)cc2)CC1",
    "ED50": "0.25 mg/kg"
  },
  {
    "itemSmiles": "Oc1ccc2c(Oc3ccc(OCCN4CCCCC4)cc3)c(-c3ccc(F)c(F)c3)ccc2c1",
    "ED50": "0.058 mg/kg"
  },
  {
    "itemSmiles": "CCS(=O)(=O)c1ccc(-c2sc3cc(O)ccc3c2Oc2ccc(OCCN3CCCCC3)cc2)cc1",
    "ED50": "0.56 mg/kg"
  }
]

// map `Oc1ccc(-c2ccc3cc(O)ccc3c2Oc2ccc(OCCN3CCCCC3)cc2)cc1` to recorded ED50 (system: Rattus norvegicus)
0.3 mg/kg

// fetch Rattus norvegicus ED50 for `CN(C)C(=O)c1ccc(-c2ccc3cc(O)ccc3c2Oc2ccc(OCCN3CCCCC3)cc2)cc1`
0.19 mg/kg

Request - read-out ED50 | tested on Rattus norvegicus | molecule `CC(C)S(=O)(=O)c1ccc(-c2ccc3cc(O)ccc3c2Oc2ccc(OCCN3CCCCC3)cc2)cc1`
0.37 mg/kg

====

What follows is a collection of pKi values obtained with Estrogen receptor (Homo sapiens).
Sequence (P03372 whole entry): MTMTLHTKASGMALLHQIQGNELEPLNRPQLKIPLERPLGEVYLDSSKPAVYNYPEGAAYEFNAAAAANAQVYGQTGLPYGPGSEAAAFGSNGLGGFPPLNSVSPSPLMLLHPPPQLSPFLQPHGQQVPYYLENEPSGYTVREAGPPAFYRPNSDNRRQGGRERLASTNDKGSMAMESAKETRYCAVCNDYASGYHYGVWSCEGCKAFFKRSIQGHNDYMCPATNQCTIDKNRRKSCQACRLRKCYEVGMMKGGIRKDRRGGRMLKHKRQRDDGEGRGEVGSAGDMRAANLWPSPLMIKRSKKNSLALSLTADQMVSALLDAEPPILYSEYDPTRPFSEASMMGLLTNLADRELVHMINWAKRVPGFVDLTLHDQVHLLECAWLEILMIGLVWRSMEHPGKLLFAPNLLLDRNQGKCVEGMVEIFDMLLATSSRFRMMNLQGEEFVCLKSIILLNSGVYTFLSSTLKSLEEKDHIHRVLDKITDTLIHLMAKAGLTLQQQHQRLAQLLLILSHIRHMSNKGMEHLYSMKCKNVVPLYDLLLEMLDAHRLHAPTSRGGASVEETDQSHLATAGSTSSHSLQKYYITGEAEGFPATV
Scale: pKi equals -log10([C]), with [C] in mol/L.

Please look up its pKi: `O=S1(=O)CC=C(c2ccc3cc(O)ccc3c2Oc2ccc(OCCN3CCCCC3)cc2)CC1`
8.99

Look up pKi for this compound: `CC(C)S(=O)(=O)c1ccc(-c2ccc3cc(O)ccc3c2Oc2ccc(OCCN3CCCCC3)cc2)cc1`
9.14

Give the measured pKi of `CCS(=O)(=O)c1ccc(-c2ccc3cc(O)ccc3c2Oc2ccc(OCCN3CCCCC3)cc2)cc1` .
8.91

May I ask what pKi has been recorded for `Oc1cccc(-c2ccc3cc(O)ccc3c2Oc2ccc(OCCN3CCCCC3)cc2)c1` ?
9.68

Can you look up the measured pKi of `CN(C)S(=O)(=O)c1ccc(-c2ccc3cc(O)ccc3c2Oc2ccc(OCCN3CCCCC3)cc2)cc1` for me?
9.40

Recorded pKi for CS(=O)(=O)C1CC=C(c2ccc3cc(O)ccc3c2Oc2ccc(OCCN3CCCCC3)cc2)CC1 (centres undefined) , please?
8.96

Which pKi is reported for this compound? `N#Cc1cccc(-c2ccc3cc(O)ccc3c2Oc2ccc(OCCN3CCCCC3)cc2)c1`
9.62

Item under review: `Oc1ccc2c(Oc3ccc(OCCN4CCCCC4)cc3)c(-c3cccc(F)c3)ccc2c1` . Reported pKi?
9.74

pKi lookup needed for `Oc1ccc(-c2ccc3cc(O)ccc3c2Oc2ccc(OCCN3CCCCC3)cc2)cc1` , thanks.
9.49
